From: patent US20230357348A1

- ASSAY SYSTEM: human GLP-1 receptor (hGLP-1R) (human, UniProt P43220 24-463)
- ASSAY INFO: cell-based or functional assay
Starred links: 1 amine or outer side, 2 acyl side, 3 side chain; linkers in the order of their positions; H or OH if unused. Non-standard residues stand in square brackets, D forms with d. Groups on a side chain read outwards from the residue. No end group written: not given here. *: point of attachment. C20 diacid = O=C(O)CCCCCCCCCCCCCCCCCCC(=O)*; γGlu = O=C(O)[C@H](CCC(=O)[*:2])N[*:1]; αMeF = C[C@](N)(Cc1ccccc1)C(=O)O; AEEA = NCCOCCOCC(=O)O; Aib = CC(C)(N)C(=O)O
Attribute: hGLP-1R EC50 (pM); cAMP production
Please reply with the bare figure in pM and do not write the unit itself.

These solved cases illustrate the format of a correct answer.
Query :: Fill in: hGLP-1R EC50 (pM); cAMP production of HXHGSXTSDVSKXLDSQAAQDFVXWIANT (Aib at 2; αMePhe at 6 and 13; K((PEG)2-(PEG)2-γE-γE-C20diacid)24; C-terminal amide) [Peptide 355] is ___
Result :: 424

Query :: Fill in: hGLP-1R EC50 (pM); cAMP production of H[Aib]HGS[αMeF]TSDVSK[αMeF]LDSRAAQDFVK([AEEA-AEEA-γGlu-C20 diacid])WIANT-NH2 (not fully specified) [Peptide 367] is ___
Result :: 139

In the following, a different binder is considered.
Query :: Fill in: hGLP-1R EC50 (pM); cAMP production of HXQGSXTSDVSKXLDSQAAQDFVXWIANT (Aib at 2; αMePhe at 6 and 13; K(O2Oc-O2Oc-γE-C18diacid)24; C-terminal amide) [Peptide 349] is ___
Result :: 121
